# target.or.system: Neurogenic locus notch homolog protein 2 (Homo sapiens)
# test.protocol: Notch2 binders on small-molecule microarrays, primary screen, biochemical, small-molecule microarray, 635 nm fluorescence, stem cell growth factors (AID 1073)
# test.conditions: Notch2 binding, higher = more signal
experimental.readout: composite z-score
Answer with a number only.

Endpoint output: composite z-score of CCCCCN1CC=CC23O[C@@H]4/C=C\CCCOC(=O)C4[C@H]2C(=O)N(CCO)[C@@H]3C1=O (some centres undefined) . Value?
-0.326

Item: CN1C(=O)C2C=CC(C(O)c3ccc([N+](=O)[O-])cc3)N(Nc3ccccc3)C2C1=O (centres undefined)
1.62

Item: `COc1ccc(CCNC(=O)[C@@H]2c3ccccc3C(=O)N(Cc3cc(F)cc(C(F)(F)F)c3)[C@H]2c2ccc(CO)cc2)cc1`
0.158

Item: `CC(C)C[C@@H]1NC(=O)[C@H]2C[C@@H](C(=O)O)[C@@H](c3cccc(OCCO)c3)N2C1=O`
-0.26

====

# Tested on: PRMT1 (protein arginine N-methyltransferase 1)
# test.protocol: PRMT1 binders on small-molecule microarrays, primary screen, biochemical, small-molecule microarray, 635 nm fluorescence (AID 1088);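 also: binding of Prmt1 protein to compounds spotted on small-molecule microarray slides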
# test.conditions: small-molecule microarray binding, higher = more signal
experimental.readout: composite z-score
Answer with a number only.

Endpoint output: composite z-score of `C[N+](C)(C)CCCC[C@@H]1NC(=O)[C@H]2C[C@@H](C(=O)NCCCCCN)[C@@H](c3ccc(O)cc3)N2C1=O` . Value?
1.54

Item: `CCCCCCc1nc(Cc2cc(OC)c(OC)c(OC)c2)c(C)c2c1[Si](C(C)C)(C(C)C)OC2`
0.829

Item: `CCOC(=O)C[C@H]1[C@H](OC(=O)Cc2ccc3c(c2)OCO3)[C@@H](NC(=O)CC(C)C)c2cc(OCCCO)ccc2N1C(=O)c1ccc2ccccc2n1`
0.516

Item: `C=CCNC(=O)[C@H]1[C@@H]2C(=O)O[C@@H](c3ccccc3)[C@@H](c3ccccc3)N2[C@@H](c2ccc(O)cc2)[C@]12C(=O)Nc1ccc(C#CCC(C(=O)OC)C(=O)OC)cc12`
0.526

Item: `CO[C@H]1O[C@H](CO)[C@@H](OC(=O)Nc2ccccc2)[C@@H]2OC(=O)[C@@H](Cc3ccccc3)C/C=C/C[C@H](Cc3ccccc3)C(=O)O[C@@H]12`
1.2

Item: `COc1ccc(CCNC(=O)[C@@]2(c3ccc([N+](=O)[O-])cc3)CC(=O)N(C3CCCCC3)[C@@H]2c2ccc(CO)cc2I)cc1`
1.39

====

# test.protocol: binders of probe aHhip on microarray, primary screen, stem cell growth factor project, biochemical, small-molecule microarray, fluorescence 635/667 (AID 1087);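 also: score merges spot fluorescence at 667nm with spot signal to noise ratio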
# test.conditions: higher = more signal
Please use rule met whenever composite z-score is not below -0.03, and rule not met whenever it is.

For this compound, is measured composite z-score -0.03 or higher? `CCOC(=O)C[C@H]1[C@H](OC(=O)c2ccc(-c3ccccc3)cc2)[C@@H](NC(=O)c2ccc(-c3ccccc3)cc2)c2cc(OCCCO)ccc2N1C(=O)c1ccccc1`
rule not met

Item: `COc1c(C)cc(-c2nc(-c3ccccc3)c3c(c2C)CO[Si]3(C(C)C)C(C)C)cc1C`
rule not met

Item: `O=C1O[C@H](c2ccccc2)[C@H](c2ccccc2)N2[C@H]1[C@@H](C(=O)N1CCCCCCC1)[C@]1(C(=O)Nc3ccc(C#CCCO)cc31)[C@H]2c1ccc(O)cc1`
rule met

Item: CC(C)C[C@H]1NC(=O)CNC(=O)[C@@]23C(=O)N[C@@H](Cc4ccccc4)C2[C@H](C)[C@@]2(C)O[C@H]2C3/C=C/C/C=C\CNC1=O (stereo not given in full)
rule met

Item: `COc1cc(Cc2cc3c(c(CCc4ccccc4)n2)[Si](C(C)C)(C(C)C)O[C@H]3c2ccccc2)cc(OC)c1OC`
rule met

Item: `Cc1ccc(S[C@]2(C(=O)NC(C)C)CC(=O)N(Cc3ccccc3)[C@@H]2c2ccc(CO)cc2)cc1`
rule met

Item: `COCCCNC(=O)[C@@]1(Cc2ccccc2I)c2ccccc2C(=O)N(Cc2ccccc2OC)[C@H]1c1ccc(CO)cc1`
rule not met

Item: `C=C(/C=C\CNS(=O)(=O)c1ccc(C)cc1)[C@H](O)[C@H]1CCCN1S(=O)(=O)c1ccccc1[N+](=O)[O-]`
rule met

Item: `Cc1ccc(S[C@]2(C(=O)NC(C)C)CC(=O)N(Cc3ccccc3)[C@@H]2c2ccc(CO)cc2I)cc1`
rule not met

Item: C=CC[C@]1(C(=O)NCC(O)CO)N=C(c2ccc(OCCCO)cc2)O[C@H]1c1ccccc1CN=[N+]=[N-] (stereo not given in full)
rule met

Item: `CC(C)Cc1ccc(CN2CC[C@@H](NC(=O)c3ccccc3)C2)cc1`
rule not met

Item: `COC(=O)[C@@]1(Cc2ccc(F)cc2)[C@H]2c3cc(C(=O)N4CCCC4)n(C[C@H](O)CO)c3C[C@H]2CN1C(=O)c1ccccc1`
rule met

Item: `COc1ccc([Si](C)(C)[C@@H]2[C@@H](CC(=O)N(CCO)Cc3ccccc3)O[C@]3(C(=O)N(Cc4cccc(I)c4)c4ccccc43)[C@H]2C)cc1`
rule met

Item: N#Cc1ccc(NN2C(C(O)c3ccc(B(O)O)cc3)C=CC3CN(c4ccccc4)C(=O)C32)cc1 (stereo not given)
rule not met

====

Exercise: for every item that follows, state its recorded composite z-score.
# test.protocol: small-molecule binders of probe aLefty1, primary screen, biochemical, small-molecule microarray, 635/667 nm fluorescence (AID 1153);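 also: score merges spot fluorescence with signal-to-noise ratio from the scanned slide images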
# test.conditions: higher = more signal
Answer with a number only.

Endpoint output: composite z-score of `Cc1ccc(S(=O)(=O)N2[C@@H](c3ccccc3)C(C(=O)O)=CC[C@H]2c2ccc(F)cc2)cc1` . Value?
0.214

Item: `CCOC(=O)C=C1C[C@@H](c2cccc([N+](=O)[O-])c2)O[C@@H](c2cccc([N+](=O)[O-])c2)O1`
1.21

Item: `NCCCCCCNC(=O)[C@@H]1C[C@@H]2C(=O)NCC(=O)N2[C@@H]1c1cccc(OCCO)c1`
0.0892

Item: `C[N+](C)(C)CCCC[C@@H]1NC(=O)[C@H]2C[C@@H](C(=O)O)[C@@H](c3ccc(O)cc3)N2C1=O`
0.0437

Item: `C=C(C(=O)CC[C@@H](OC(=O)c1ccccc1-c1ccccc1C(=O)O)c1ccc(OCCO)cc1)C(C)C`
0.312

Item: `CCOC(=O)C[C@H]1[C@H](OC(=O)c2cc3ccccc3oc2=O)[C@@H](NC(=O)Cc2ccc(OC)cc2)c2cc(OCCCO)ccc2N1C(=O)Cc1ccc(OC)cc1`
1.28

Item: `[N-]=[N+]=NCc1ccccc1[C@H]1OC(c2ccc(OCCCO)cc2)=N[C@@]1(CCS(=O)(=O)c1ccccc1)C(=O)NCCN1CCOCC1`
0.877

Item: `C=CCNC(=O)[C@@H]1[C@H]2C(=O)O[C@H](c3ccccc3)[C@H](c3ccccc3)N2[C@H](c2ccc(OCCO)cc2)[C@@]12C(=O)N(C(=O)OCCOC)c1ccccc12`
0.258

Item: `COC(=O)Cn1c(C(=O)N(C)C)cc2c1C[C@H]1CN(C(=O)c3ccccc3)[C@@](Cc3ccccc3)(C(=O)OC)[C@@H]21`
0.155

Item: `CCCNC(=O)[C@@]1(Sc2ccc(C)cc2)CC(=O)N(Cc2cc(C(F)(F)F)cc(C(F)(F)F)c2)[C@@H]1c1ccc(CO)cc1`
-0.193

Item: `Cc1c(NC(=O)/C(C#N)=C/C=C/c2ccc([N+](=O)[O-])cc2)c(=O)n(-c2ccccc2)n1C`
0.277

Item: `CC[C@@H](O[Si](C#C[Si](C(C)C)(C(C)C)C(C)C)(C(C)C)C(C)C)c1cn(Cc2cccc(Cl)c2)nn1`
0.106

Item: CS(=O)(=O)CCOC(=O)C1=CC(CCCO)=CC(C2CC2)N(Cc2sc3ccccc3c2Cl)C=C1C(=O)OCCS(C)(=O)=O (centres undefined)
0.52

Item: `COCCOC(=O)N1C(=O)[C@@]2(c3cc(C#CCC(C(=O)OC)C(=O)OC)ccc31)[C@H](C(=O)N1CCc3cc(OC)c(OC)cc3C1)[C@H]1C(=O)O[C@H](c3ccccc3)[C@H](c3ccccc3)N1[C@@H]2c1ccccc1OCCO`
-0.314

====

# System: Noggin (protein binding on small-molecule microarray)
# test.protocol: Noggin binders on small-molecule microarray, primary screen, biochemical, 635/667 nm fluorescence (AID 1095);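 also: score merges 667 nm feature fluorescence with signal to noise over triplicate slides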
# test.conditions: 635 nm fluorescence, higher = more signal
experimental.readout: composite z-score
Answer with a number only.

Endpoint output: composite z-score of `C=CCNC(=O)[C@H]1[C@@H]2C(=O)O[C@@H](c3ccccc3)[C@@H](c3ccccc3)N2[C@@H](c2ccc(OCCO)cc2)[C@]12C(=O)Nc1ccc(C#Cc3ccc(OC)cc3)cc12` . Value?
1.27

Item: N#Cc1ccc(NN2C(C(O)c3ccc(B(O)O)cc3)C=CC3CN(c4ccccc4)C(=O)C32)cc1 (centres undefined)
-0.345

Item: `COc1ccc([Si](C)(C)[C@@H]2[C@@H](CC(=O)N3Cc4ccccc4C[C@H]3CO)O[C@]3(C(=O)N(Cc4ccc(I)cc4)c4ccccc43)[C@H]2C)cc1`
1.92

Item: COc1ccc(C(O)C2C=CC3C(=O)N(C)C(=O)C3N2Nc2ccccc2)cc1 (centres undefined)
-0.357
